# Test Target: T1, Pro-C1s
# T1 construct: also called purified pro-C1s protein
# T1 chain: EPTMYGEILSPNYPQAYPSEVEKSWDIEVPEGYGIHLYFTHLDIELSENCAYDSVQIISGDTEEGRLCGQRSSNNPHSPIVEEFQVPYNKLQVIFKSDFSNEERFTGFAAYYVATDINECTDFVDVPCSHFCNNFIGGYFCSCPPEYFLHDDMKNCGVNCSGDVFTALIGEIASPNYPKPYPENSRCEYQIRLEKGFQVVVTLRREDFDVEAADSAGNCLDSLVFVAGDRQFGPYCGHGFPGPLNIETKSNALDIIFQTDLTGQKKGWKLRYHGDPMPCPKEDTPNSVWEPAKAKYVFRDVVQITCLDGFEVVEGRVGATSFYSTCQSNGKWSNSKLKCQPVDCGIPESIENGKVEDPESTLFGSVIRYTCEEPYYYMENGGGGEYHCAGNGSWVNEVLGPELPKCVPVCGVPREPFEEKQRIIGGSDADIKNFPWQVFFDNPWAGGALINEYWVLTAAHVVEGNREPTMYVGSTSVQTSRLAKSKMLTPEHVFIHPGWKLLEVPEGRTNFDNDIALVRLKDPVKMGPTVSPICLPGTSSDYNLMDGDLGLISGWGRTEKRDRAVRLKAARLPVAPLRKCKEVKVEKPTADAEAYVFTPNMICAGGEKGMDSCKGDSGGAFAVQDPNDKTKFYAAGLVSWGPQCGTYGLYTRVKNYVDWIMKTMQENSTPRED
# Assay Comment: bio-layer interferometry (BLI), kinetic analysis
Please go through the items and note down their Kd.
Quick reminder: number only, in nM, skip the unit.

Prompt line: # return recorded Kd for input antibody IPN-M24 (antibody, V domains shown, Mouse monoclonal antibody (NZBW hybridoma)) VH: EVKLQQSGAELVRPGVSVKISCKVSGYTFTDYAMHCVKQSHAKSLEWIGVISIYNGDASYNQKFKDKATMTVDKSSSTSYMDLARLTSEESAVYNCVREAPYLITTVFYAMDYWGQGTSVTVSS VL: DIVMTQSPAIMSASPGEKVTMTCSANSSISYMHWYQQKPGTSPKRWIYDTSKLASGVPTRFSGSGSGTSYSLTISSMEAEDAATYYCHQRSFYLTFGSGTKLEIK
Response line: 4.46

Prompt line: # return recorded Kd for input antibody IPN-M3 (antibody, V domains shown, Mouse monoclonal antibody (NZBW hybridoma); Same VL and VH as IPN-M1 and IPN-M13) VH: EVQLQQSGAELVRPGASVKLSCTASGFNIKDDYIHWVKQRPEQGLEWIGRIDPADDHTKYAPKFQDKATMTADTSSNTACLQLNSLTSEDTAVYYCAIYGSGWAWFPYWGQGTLVSVSA VL: DIVLTQSTDYLAVSLGQRATISCKASQSVDYDGDSYMNWYQQKPGQPPKLLIYAASNLESGIPARFSGSGSGTDFTLNIHPVEEEDAATYYCQQSNEDPWTFGGGTKLEIK
Response line: 102

Prompt line: # return recorded Kd for input antibody IPN-M13 (antibody, V domains shown, Mouse monoclonal antibody (NZBW hybridoma); Same VL and VH as IPN-M1 and IPN-M3) VH: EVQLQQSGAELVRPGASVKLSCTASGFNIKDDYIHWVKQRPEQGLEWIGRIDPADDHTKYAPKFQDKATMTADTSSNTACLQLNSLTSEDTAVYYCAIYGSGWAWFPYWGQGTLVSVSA VL: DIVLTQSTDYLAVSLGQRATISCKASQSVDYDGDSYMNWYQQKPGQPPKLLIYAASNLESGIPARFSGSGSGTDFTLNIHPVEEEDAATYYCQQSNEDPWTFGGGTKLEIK
Response line: 15.9

Prompt line: # return recorded Kd for input antibody IPN-M1 (antibody, V domains shown, Mouse monoclonal antibody (NZBW hybridoma); of the 17, thirteen were IgG2a, one IgG2b, three IgG1; Same VL and VH as IPN-M3 and IPN-M13) VH: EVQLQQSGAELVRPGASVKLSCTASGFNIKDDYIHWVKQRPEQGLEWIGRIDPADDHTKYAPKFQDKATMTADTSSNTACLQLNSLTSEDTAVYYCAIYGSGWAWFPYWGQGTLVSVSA VL: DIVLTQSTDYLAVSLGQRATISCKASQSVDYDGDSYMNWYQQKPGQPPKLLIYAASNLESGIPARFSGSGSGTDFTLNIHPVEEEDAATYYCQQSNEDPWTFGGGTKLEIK
Response line: 92.5

Prompt line: # return recorded Kd for input antibody IPN-M10 (antibody, V domains shown, Mouse monoclonal antibody (NZBW hybridoma)) VH: QVQLQQPGAELVRPGASVKLSCKVSGYTFTRYWMHWVKQRPGQGLEWIGEINPSNSDTDYNEEFKSKATLTVDKSSSTAYMHLSSLTSEDSAVYYCTIDDSVYGWFAYWGQGTLVTVSA VL: DIVITQSPAIMSASPGERVTMTCSASSSISYMHWYHQKPGTSPKRWIYDTSKLASGVPARFSGSGSGTSYSLTISSMEAEDAATYYCHQRSSFPTFGAGTKLELK
Response line: 7.98

Prompt line: # return recorded Kd for input antibody IPN-M15 (antibody, V domains shown, Mouse monoclonal antibody (NZBW hybridoma)) VH: EVKLEQSGAELVRPGASVKLSCTASGFNIKDDYIHWVKQRPEQGLEWIGRIDPADDHTKYAPKFQDKATMTADTSSNTACLQLNSLTSEDTAVYYCAIYGSGWAWFPYWGQGTLVSVSA VL: FALMTQSTDYLAVSLGQRATISCKASQSVDYDGDSYMNWYQQKPGQPPKLLIYAASNLESGIPTRFSGSGFGTDFTLNIHPVEEEDAATYYCQQSNEDPWTFGGGPKLEIK
Response line: 3.37

Prompt line: # return recorded Kd for input antibody IPN-M8 (antibody, V domains shown, Mouse monoclonal antibody (NZBW hybridoma); Same VL and VH as IPN-M2) VH: EVKLQQSGAELVRPGASVKLSCTASGFNIKDDYIHWVKQRPEQGLEWIGRIDPADGHTKYAPKFQVKATITADTSSNTAYLQLSSLTSEDTAVYYCARYGYGREVFDYWGQGTTLTVSS VL: DIVLTQSPASLAVSLGQRATISCKASQSVDYDGDSYMNWYQQKTGQPPKILIYDASNLESGIPARFSGSGSGTDFTLNIHPVEEEDAAIYYCQQSNEDPWTFGGGTKLEIK
Response line: 19.7

Reference source: patent US20200079876A1
